Source of measurements: patent US20260262643A1

system: kochia; assay: Test A postemergence; type: in vivo, Bassia scoparia; conditions: 125 g ai/ha, postemergence, 10 days; 0 to 100 scale, 0 no effect, 100 complete control
Documented Kochia plant response rating across a set of compounds
MEASURED PROPERTY: Kochia plant response rating

> print(dat)
                                   compound  measurement
1  Cc1ccc(-n2cnc(C3CCC3)n2)cc1C(=O)N1C[C@H](C)Oc2c(C)cccc21 [Compound 97]           70
2  CCc1ccc(-n2cnc(C3CC3)n2)cc1C(=O)N1C[C@H](C)Oc2c(Cl)cccc21 [Compound 103]           80
3  CC(C)c1ncn(-c2ccc(C#N)c(C(=O)N3C[C@H](C)Oc4c(Cl)cccc43)c2)n1 [Compound 140]           90
4  Cc1ccc(-n2cnc(C(C)C)n2)cc1C(=O)N1C[C@H](C)Oc2c(C)cccc21 [Compound 99]           80
5  C[C@H]1CN(C(=O)c2cc(Br)cc(-n3cncn3)c2)c2cccc(Cl)c2O1 [Compound 114]           40
6  CCc1ccc(-n2cnc(C3CCC3)n2)cc1C(=O)N1C[C@H](C)Oc2c(Cl)cccc21 [Compound 104]           80
7  CCC(C)c1ncn(-c2cccc(C(=O)N3C[C@H](C)Oc4c(C)cccc43)c2)n1 (some centres unmarked) [Compound 87]           70
8  C[C@H]1CN(C(=O)c2cc(Cl)cc(-n3cncn3)c2)c2cccc(Cl)c2O1 [Compound 81]           50

* * *

system: goosegrass; experiment: Test A postemergence; format: in vivo, Eleusine indica; details: 125 g ai/ha, postemergence, 10 days, visual injury, 0 to 100 scale (0 no effect, 100 complete control)
Attribute: Plant response rating, Goosegrass
MEASURED PROPERTY: Plant response rating, Goosegrass

> print(dat)
                                   compound  measurement
1  Cc1ccc(C(=O)N2CC(C)Oc3c(Cl)cccc32)cc1-n1cncn1 (centres unmarked)           30
2  CCCc1ncn(-c2cccc(C(=O)N3C[C@H](C)Oc4c(C)cccc43)c2)n1           50
3  Cc1cccc2c1O[C@@H](C)CN2C(=O)c1cccc(-n2cnc(C(F)(F)F)n2)c1           10
4  Cc1cccc2c1O[C@@H](C)CN2C(=O)c1cccc(-n2ncnc2C(C)C)c1            0
5  Cc1cccc2c1O[C@@H](C)CN2C(=O)c1cccc(-n2cnc(C3CC3)n2)c1           40
6  Cc1ccc(-n2cncn2)cc1C(=O)N1C[C@H](C)Oc2c(C)cccc21           40
7  C[C@H]1CN(C(=O)c2cccc(-n3cncn3)c2)c2cccc(C(F)(F)F)c2O1            0
8  Cc1cccc2c1O[C@@H](C)CN2C(=O)c1cccc(-n2cnc(C(C)(C)C)n2)c1           10

* * *

Item-by-item account of Plant response rating, Ryegrass, Italian
test system: ryegrass, Italian; test: Test C preemergence; type: in vivo, Lolium multiflorum; details: Preemergence, 125 g ai/ha; 0 to 100 scale, 0 no effect, 100 complete control
Description: […]
MEASURED PROPERTY: Plant response rating, Ryegrass, Italian

> print(dat)
                                    molecule                         measured.property  measurement
 1  Cc1ccc(-n2cnc(C3(C#N)CCC3)n2)cc1C(=O)N1C[C@H](C)Oc2c(Cl)cccc21  Plant response rating, Ryegrass, Italian           70
 2  CCOC[C@H]1CN(C(=O)c2cc(-n3cnc(C(C)C)n3)cc3c2OCO3)c2cccc(Cl)c2O1  Plant response rating, Ryegrass, Italian           60
 3  CC(C)c1ncn(-c2cc(C(=O)N3CC(C(F)(F)F)Oc4c(Cl)cccc43)ccn2)n1 (single isomer, unassigned) [Compound 330]  Plant response rating, Ryegrass, Italian          100
 4  Cc1ncn(-c2ccc(C)c(C(=O)N3CC(C(F)(F)F)Oc4c(Cl)cccc43)c2)n1 (stereo not drawn)  Plant response rating, Ryegrass, Italian          100
 5  Cc1cccc2c1OC(C(F)(F)F)CN2C(=O)c1cccc(-n2cnc(C(C)(C)C)n2)c1 (stereo not drawn)  Plant response rating, Ryegrass, Italian          100
 6  COc1ccc(-n2cnc(C3CC3)n2)cc1C(=O)N1C[C@H](C)Oc2c(Cl)cccc21  Plant response rating, Ryegrass, Italian           80
 7  CCOC[C@H]1CN(C(=O)c2cc(-n3cnc(CC)n3)ccc2C)c2cccc(Cl)c2O1  Plant response rating, Ryegrass, Italian           80
 8  Cc1ccc(-n2cnc(CS(C)(=N)=O)n2)cc1C(=O)N1C[C@H](C)Oc2c(Cl)cccc21 (stereo partly drawn)  Plant response rating, Ryegrass, Italian           40
 9  CC(C)c1ncn(-c2cc(C(=O)N3CC(C(F)(F)F)Oc4c(Cl)cccc43)ccn2)n1 (racemic) [Compound 329]  Plant response rating, Ryegrass, Italian           70
10  COCc1ncn(-c2ccc(C)c(C(=O)N3C[C@H](C)Oc4c(Cl)cccc43)c2)n1  Plant response rating, Ryegrass, Italian          100
11  CCOC[C@H]1CN(C(=O)c2cc(-n3cnc(C(C)(C)C)n3)ccc2C)c2cccc(Cl)c2O1  Plant response rating, Ryegrass, Italian           80
12  CC(C)c1ncn(-c2ccc(OS(C)(=O)=O)c(C(=O)N3C[C@H](C)Oc4c(Cl)cccc43)c2)n1  Plant response rating, Ryegrass, Italian           90
13  CCOC[C@H]1CN(C(=O)c2cc(-n3cnc(C(C)C)n3)cc3c2OCCO3)c2cccc(Cl)c2O1  Plant response rating, Ryegrass, Italian           60
14  Cc1ccc(-n2cnc(C(C)C)n2)cc1C(=O)N1CC(C(F)(F)F)Oc2c(Cl)cccc21 (stereo not drawn)  Plant response rating, Ryegrass, Italian           90
15  Cc1cccc2c1OC(C(F)(F)F)CN2C(=O)c1ccnc(-n2cnc(C(C)(C)C)n2)c1 (stereo not drawn)  Plant response rating, Ryegrass, Italian          100
